Source: the supplement of paper PMC10567573

B1: ZNF232 (parent)
chain: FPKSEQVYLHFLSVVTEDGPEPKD

- Variants of: B1
- assay.procedure: protein stability index of a GFP-peptide fusion (GPS, HEK-293T) (PSI 1-6); higher = more stable;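 note: lentivirally expressed fusions sorted by FACS into six bins by GFP to DsRed ratio, PSI derived from sequencing read proportions per bin multiplied by bin number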
- assay.conditions: c terminus: a fixed tail appended
measurement.label: protein stability index
Give only the figure.

variant.name	protein stability index
P20D	2.53
V14P	3.14

*Q* For T16Y , what is its reported protein stability index?
*A* 2.07

*Q* For P22N , what is its reported protein stability index?
*A* 2.37
